From: the Immune Epitope Database (IEDB)

TESTED SYSTEM: HLA-A*02:01
TEST DETAILS: IEDB peptide-MHC binding, purified MHC/direct/fluorescence; filed as Kd, often an IC50 or EC50 that approximates it; bounds were set here for any values at or beyond the usual limits of such assays
SETUP CONDITIONS: source organism: Orthohantavirus andesense
OBSERVATION TYPE: Kd

Briefly, Kd measured for YRRKLTNPA : ≥ 20 µM

###

TESTED SYSTEM: HLA-A*69:01
TEST DETAILS: IEDB peptide-MHC binding, purified MHC/direct/fluorescence; filed as Kd, often an IC50 or EC50 that approximates it; bounds were set here for any values at or beyond the usual limits of such assays
SETUP CONDITIONS: source organism: Orthohantavirus andesense
OBSERVATION TYPE: Kd

Briefly, Kd measured for YRRKLTNPA : ≥ 20 µM
